Give AUC(0-t) for every item shown.
ASSAY_OVERVIEW: Drug interaction study: whole blood pharmacokinetics of temsirolimus and sirolimus after single 5-mg i.v. temsirolimus alone or with oral ketoconazole
Format: in vivo, human
TEST_CONDITIONS: human, iv; single 5 mg i.v. temsirolimus alone; whole blood; mean (CV)
Reply with the number and its unit after it.

COMPOUND_STRING | READOUT_VALUE
CO[C@H]1C[C@@H]2CC[C@@H](C)[C@@](O)(O2)C(=O)C(=O)N2CCCC[C@H]2C(=O)O[C@H]([C@H](C)C[C@@H]2CC[C@@H](OC(=O)C(C)(CO)CO)[C@H](OC)C2)CC(=O)[C@H](C)/C=C(\C)[C@@H](O)[C@@H](OC)C(=O)[C@H](C)C[C@H](C)/C=C/C=C/C=C/1C | 873 ng·h/mL

Consider the additional compound presented here.
query: Which AUC(0-t) value is on record for `CO[C@H]1C[C@@H]2CC[C@@H](C)[C@@](O)(O2)C(=O)C(=O)N2CCCC[C@H]2C(=O)O[C@H]([C@H](C)C[C@@H]2CC[C@@H](O)[C@H](OC)C2)CC(=O)[C@H](C)/C=C(\C)[C@@H](O)[C@@H](OC)C(=O)[C@H](C)C[C@H](C)/C=C/C=C/C=C/1C` ?
result: 918 ng·h/mL

====

ASSAY_OVERVIEW: Drug interaction study: whole blood pharmacokinetics of temsirolimus and sirolimus after single 5-mg i.v. temsirolimus alone or with oral ketoconazole
Format: in vivo, human
TEST_CONDITIONS: human, whole blood, intravenous, single 5 mg i.v. temsirolimus + ketoconazole 400 mg oral; whole blood; mean (CV); read-out: Tmax
RESULT_TYPE: Tmax
Field note: include the unit after the figure.

query: Report Tmax for CO[C@H]1C[C@@H]2CC[C@@H](C)[C@@](O)(O2)C(=O)C(=O)N2CCCC[C@H]2C(=O)O[C@H]([C@H](C)C[C@@H]2CC[C@@H](OC(=O)C(C)(CO)CO)[C@H](OC)C2)CC(=O)[C@H](C)/C=C(\C)[C@@H](O)[C@@H](OC)C(=O)[C@H](C)C[C@H](C)/C=C/C=C/C=C/1C [Temsirolimus] please.
result: 30 min
